study target: Mu-type opioid receptor (Cavia porcellus, UniProt P97266)
Sequence (P97266 whole entry): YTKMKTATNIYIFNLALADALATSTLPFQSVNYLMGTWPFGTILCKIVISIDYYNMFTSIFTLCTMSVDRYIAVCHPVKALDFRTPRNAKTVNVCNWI
measurement protocol: Binding affinity to Opioid receptor mu 1 by competitive inhibition of radioligand [3H]DAMGO using cloned receptors transiently expressed on CHO cells
Type: cell-based
assay metric: pKi
Answers are plain numbers, as −log10 of the molar value.

In the examples that follow, each entry is paired with its recorded pKi.
compound | pKi
CC[C@H](C)[C@@H]1NC(=O)[C@H](CCCNC(=N)N)NC(=O)[C@H](NC(=O)[C@H](CC(C)C)NC(=O)[C@H](Cc2ccccc2)NC(=O)CNC(=O)CNC(=O)[C@@H](N)Cc2ccc(O)cc2)CC(=O)NCCC[C@@H](C(=O)N2CCC[C@H]2C(=O)N[C@@H](CCCCN)C(=O)N[C@@H](CC(C)C)C(=O)N[C@@H](CCCCN)C(N)=O)NC1=O | 8.49
CC(C)C[C@H](NC(=O)[C@H](CCCCN)NC(=O)[C@@H]1CCCN1C(=O)[C@H](CCCNC(=N)N)NC(=O)[C@@H]1CNC(=O)C[C@@H](NC(=O)[C@H](Cc2ccccc2)NC(=O)CNC(=O)CNC(=O)[C@@H](N)Cc2ccc(O)cc2)C(=O)N[C@@H](CCCNC(=N)N)C(=O)N[C@@H](CCCNC(=N)N)C(=O)N1)C(=O)N[C@@H](CCCCN)C(N)=O | 7.12

Okay, next one:
Please look at CC[C@H](C)[C@H](NC(=O)[C@H](CCCNC(=N)N)NC(=O)[C@H](CCCNC(=N)N)NC(=O)[C@H](CC(C)C)NC(=O)[C@H](Cc1ccccc1)NC(=O)CNC(=O)CNC(=O)[C@@H](N)Cc1ccc(O)cc1)C(=O)N[C@@H](CCCNC(=N)N)C(=O)N1CCC[C@H]1C(=O)N[C@@H](CCCCN)C(=O)N[C@@H](CC(C)C)C(=O)N[C@@H](CCCCN)C(=O)O [ANALOG OF DYNORPHIN A] and tell me its recorded pKi on Mu-type opioid receptor (Cavia porcellus, UniProt P97266). 9.04

====

study target: Delta-type opioid receptor (Homo sapiens, UniProt P41143)
Sequence (P41143 whole entry): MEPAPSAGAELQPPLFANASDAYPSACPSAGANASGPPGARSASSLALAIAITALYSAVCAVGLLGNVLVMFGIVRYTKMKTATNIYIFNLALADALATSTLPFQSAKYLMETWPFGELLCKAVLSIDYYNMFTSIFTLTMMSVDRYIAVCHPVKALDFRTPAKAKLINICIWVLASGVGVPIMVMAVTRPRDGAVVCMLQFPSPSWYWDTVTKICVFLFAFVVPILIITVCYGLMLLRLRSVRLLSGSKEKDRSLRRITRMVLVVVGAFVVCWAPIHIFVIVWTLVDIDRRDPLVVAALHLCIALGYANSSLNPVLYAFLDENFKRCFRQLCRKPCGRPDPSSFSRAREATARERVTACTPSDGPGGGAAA
measurement protocol: Binding affinity to Opioid receptor delta 1 by competitive inhibition of radioligand [3H]DPDPE using cloned receptors transiently expressed on CHO cells
Assay type: cell-based, Cavia porcellus
Give pKi for every item shown.
Numbers only, as −log10 of the molar value.

Below, each entry is followed by its recorded pKi result.
mol smiles | assay metric | reported
CC[C@H](C)[C@H](NC(=O)[C@H](CCCNC(=N)N)NC(=O)[C@H](CCCNC(=N)N)NC(=O)[C@@H](CC(=O)O)NC(=O)[C@H](Cc1ccccc1)NC(=O)CNC(=O)CNC(=O)[C@@H](N)Cc1ccc(O)cc1)C(=O)N[C@@H](CCCNC(=N)N)C(=O)N1CCC[C@H]1C(=O)N[C@@H](CCCCN)C(=O)N[C@@H](CC(C)C)C(=O)N[C@@H](CCCCN)C(N)=O | pKi | 5.89
CC(C)C[C@H](NC(=O)[C@H](CCCCN)NC(=O)[C@@H]1CCCN1C(=O)[C@H](CCCNC(=N)N)NC(=O)[C@@H]1CCNC(=O)C[C@@H](NC(=O)[C@H](Cc2ccccc2)NC(=O)CNC(=O)CNC(=O)[C@@H](N)Cc2ccc(O)cc2)C(=O)N[C@@H](CCCNC(=N)N)C(=O)N[C@@H](CCCNC(=N)N)C(=O)N1)C(=O)N[C@@H](CCCCN)C(N)=O | pKi | 5.39
CC[C@H](C)[C@H](NC(=O)[C@H](CCCNC(=N)N)NC(=O)[C@H](CCCNC(=N)N)NC(=O)[C@H](CC(C)C)NC(=O)[C@H](Cc1ccccc1)NC(=O)[C@@H](CC(=O)O)NC(=O)CNC(=O)[C@@H](N)Cc1ccc(O)cc1)C(=O)N[C@@H](CCCNC(=N)N)C(=O)N1CCC[C@H]1C(=O)N[C@@H](CCCCN)C(=O)N[C@@H](CC(C)C)C(=O)N[C@@H](CCCCN)C(N)=O | pKi | 6.37

Alright, here's another compound for you.
Look up and state reported pKi for CC(C)C[C@H](NC(=O)[C@H](CCCCN)NC(=O)[C@@H]1CCCN1C(=O)[C@H](CCCNC(=N)N)NC(=O)[C@@H]1CCCNC(=O)C[C@@H](NC(=O)[C@H](Cc2ccccc2)NC(=O)CNC(=O)CNC(=O)[C@@H](N)Cc2ccc(O)cc2)C(=O)N[C@@H](CCCNC(=N)N)C(=O)N[C@@H](CCCNC(=N)N)C(=O)N1)C(=O)N[C@@H](CCCCN)C(N)=O 5.72

====

Could you please report measured pKi for the items listed next?
study target: Delta-type opioid receptor (Homo sapiens, UniProt P41143)
measurement protocol: Binding affinity to Opioid receptor delta 1 by competitive inhibition of radioligand [3H]DPDPE using cloned receptors transiently expressed on CHO cells
Format: cell-based, Cavia porcellus
Give bare numbers, as −log10 of the molar value.

Sample answers from the record:
mol smiles | pKi
CC[C@H](C)[C@H](NC(=O)[C@H](CCCNC(=N)N)NC(=O)[C@@H](CC(=O)O)NC(=O)[C@H](CC(C)C)NC(=O)[C@H](Cc1ccccc1)NC(=O)CNC(=O)CNC(=O)[C@@H](N)Cc1ccc(O)cc1)C(=O)N[C@@H](CCCNC(=N)N)C(=O)N1CCC[C@H]1C(=O)N[C@@H](CCCCN)C(=O)N[C@@H](CC(C)C)C(=O)N[C@@H](CCCCN)C(N)=O | 7.66
CC[C@H](C)[C@@H]1NC(=O)[C@H](CCCNC(=N)N)NC(=O)[C@H](NC(=O)[C@H](CC(C)C)NC(=O)[C@H](Cc2ccccc2)NC(=O)CNC(=O)CNC(=O)[C@@H](N)Cc2ccc(O)cc2)CC(=O)NCCC[C@@H](C(=O)N2CCC[C@H]2C(=O)N[C@@H](CCCCN)C(=O)N[C@@H](CC(C)C)C(=O)N[C@@H](CCCCN)C(N)=O)NC1=O | 7.55

Proceeding to the next compound to report its pKi.
Identify measured pKi corresponding to CC(C)C[C@H](NC(=O)[C@H](CCCCN)NC(=O)[C@@H]1CCCN1C(=O)[C@H](CCCNC(=N)N)NC(=O)[C@@H]1CNC(=O)C[C@@H](NC(=O)[C@H](Cc2ccccc2)NC(=O)CNC(=O)CNC(=O)[C@@H](N)Cc2ccc(O)cc2)C(=O)N[C@@H](CCCNC(=N)N)C(=O)N[C@@H](CCCNC(=N)N)C(=O)N1)C(=O)N[C@@H](CCCCN)C(N)=O 5.48

====

study target: Mu-type opioid receptor (Cavia porcellus, UniProt P97266)
measurement protocol: Binding affinity to Opioid receptor mu 1 by competitive inhibition of radioligand [3H]DAMGO using cloned receptors transiently expressed on CHO cells
Format: cell-based
For each entry below, report its Ki value.
Give bare numbers, in nM.

Kindly give each listed record's Ki.
1. CC[C@H](C)[C@H](NC(=O)[C@H](CCCNC(=N)N)NC(=O)[C@@H](CC(=O)O)NC(=O)[C@H](CC(C)C)NC(=O)[C@H](Cc1ccccc1)NC(=O)CNC(=O)CNC(=O)[C@@H](N)Cc1ccc(O)cc1)C(=O)N[C@@H](CCCNC(=N)N)C(=O)N1CCC[C@H]1C(=O)N[C@@H](CCCCN)C(=O)N[C@@H](CC(C)C)C(=O)N[C@@H](CCCCN)C(N)=O
2. CC(C)C[C@H](NC(=O)[C@H](CCCCN)NC(=O)[C@@H]1CCCN1C(=O)[C@H](CCCNC(=N)N)NC(=O)[C@@H]1CCNC(=O)C[C@@H](NC(=O)[C@H](Cc2ccccc2)NC(=O)CNC(=O)CNC(=O)[C@@H](N)Cc2ccc(O)cc2)C(=O)N[C@@H](CCCNC(=N)N)C(=O)N[C@@H](CCCNC(=N)N)C(=O)N1)C(=O)N[C@@H](CCCCN)C(N)=O

1. 1.2
2. 40
